subject of test: Spike S1 & S2 ECD (SARS-CoV-2)
experiment description: filter
measurement setup: 2NapdU at 23; other dU Tyr-dU; dC Nap-dC; SB18T0.01, 37 C
quantity: pKd
Expect pKd as a plain number equal to -log10 of the molar concentration.

[ask] Returns the measured pKd for the input sequence. Input: GGGANANNANGNGNNNGANNGNNNGGANG [26874-29_115]
[reply] 9.34

###

subject of test: authentic SARS-CoV-2 virus (VIC01, Clade B) spike (SARS-CoV-2)
experiment description: cell_activity
measurement setup: Y=Tyr-dU, p=Nap-dC; printed GGGAYApYAYGpGYppGAppGpYpGGApG [Tyr-dU: 5,8,10,14,23; Nap-dC: 7,12,15,16,19,20,22,24,28]
quantity: IC50

[ask] Could you tell me which IC50 is on file for GGGATACTATGCGTCCGACCGCTCGGACG [26874-29_20 (SL1111_20)] ?
[reply] 1.1 nM
